All values here come from the kinase profiling compilation of Christmann-Franck et al. (2016).

Target: UniProt Q02779
Sequence (Q02779 whole entry, looked up): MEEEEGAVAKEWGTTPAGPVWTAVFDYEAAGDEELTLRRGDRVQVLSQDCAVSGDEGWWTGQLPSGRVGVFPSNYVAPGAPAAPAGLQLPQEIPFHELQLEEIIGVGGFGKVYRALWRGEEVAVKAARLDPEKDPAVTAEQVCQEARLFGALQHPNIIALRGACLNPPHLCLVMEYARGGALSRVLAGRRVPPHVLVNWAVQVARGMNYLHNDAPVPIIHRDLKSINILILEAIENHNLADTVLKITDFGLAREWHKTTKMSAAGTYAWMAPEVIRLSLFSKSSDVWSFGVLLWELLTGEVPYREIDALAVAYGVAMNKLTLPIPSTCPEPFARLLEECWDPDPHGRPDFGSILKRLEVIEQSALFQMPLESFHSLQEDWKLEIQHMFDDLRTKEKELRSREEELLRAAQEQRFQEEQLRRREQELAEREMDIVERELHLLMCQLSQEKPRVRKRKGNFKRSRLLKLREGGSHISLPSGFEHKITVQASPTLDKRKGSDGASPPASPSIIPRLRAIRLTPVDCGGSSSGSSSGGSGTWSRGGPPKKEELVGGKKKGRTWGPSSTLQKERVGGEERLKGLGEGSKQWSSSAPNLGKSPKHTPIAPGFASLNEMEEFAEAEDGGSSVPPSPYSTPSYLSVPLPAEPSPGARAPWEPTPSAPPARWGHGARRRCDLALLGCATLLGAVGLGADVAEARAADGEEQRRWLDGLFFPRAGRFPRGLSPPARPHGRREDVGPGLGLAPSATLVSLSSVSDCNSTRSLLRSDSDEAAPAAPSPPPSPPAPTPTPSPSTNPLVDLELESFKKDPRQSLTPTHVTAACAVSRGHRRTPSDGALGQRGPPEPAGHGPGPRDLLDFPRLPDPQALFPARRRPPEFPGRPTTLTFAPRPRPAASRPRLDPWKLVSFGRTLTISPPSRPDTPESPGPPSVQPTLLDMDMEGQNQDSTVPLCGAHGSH
Assay: KINOMEscan competition binding
Details: compound 10.0 µM
Mark fulfilled only when kinase still bound, per cent of control stays strictly below 70%. Values equal to the cut-off are not fulfilled.

compound=C=CC(=O)Nc1cc(-n2c(=O)ccc3cnc4ccc(-c5cn[nH]c5)cc4c32)ccc1C label_class="not fulfilled"
compound=COc1ccc(N(C(=O)Oc2c(C)cccc2C)c2ccnc(Nc3ccc(N4CCN(C)CC4)cc3)n2)c(OC)c1 label_class=fulfilled
compound=O=C(Nc1cccc(Nc2ncc(Br)c(NCCc3cnc[nH]3)n2)c1)N1CCCC1 label_class=fulfilled
compound=CCN1CCN(C(=O)Cc2ccc(Nc3ncc(F)c(Nc4ccc(C(=O)Nc5ccccc5Cl)cc4)n3)cc2)CC1 label_class=fulfilled
compound=CNC(=O)c1ccc(Nc2cc(Nc3ccccc3S(=O)(=O)C(C)C)c3cc[nH]c3n2)nc1 label_class=fulfilled
compound=Cc1n[nH]c2ccc(-c3cncc(OC[C@@H](N)Cc4c[nH]c5ccccc45)c3)cc12 label_class="not fulfilled"
compound=O=c1cc(N2CCOCC2)oc2c(-c3cccc4c3sc3ccccc34)cccc12 label_class="not fulfilled"
compound=COc1cc(N2CCN(C)CC2)ccc1Nc1ncc2c(n1)N(C)c1ccccc1C(=O)N2C label_class="not fulfilled"
compound=COc1cc(C(=O)N2CCC(N3CCN(C)CC3)CC2)ccc1Nc1ncc2c(n1)N(C)c1ccccc1C(=O)N2C label_class="not fulfilled"
compound=COc1cc2ncn(-c3cc(OCc4ccccc4C(F)(F)F)c(C(N)=O)s3)c2cc1OC label_class="not fulfilled"
compound=CN(C)C/C=C/C(=O)Nc1ccc(C(=O)Nc2cccc(Nc3nccc(-c4cccnc4)n3)c2)cc1 label_class="not fulfilled"
compound=CNC(=O)c1cc(Oc2ccc(NC(=O)Nc3ccc(Cl)c(C(F)(F)F)c3)cc2)ccn1 label_class="not fulfilled"
compound=N#CCNC(=O)c1ccc(-c2ccnc(Nc3ccc(N4CCOCC4)cc3)n2)cc1 label_class=fulfilled

###

Target: MAP2K5 (human) (UniProt Q13163)
Sequence (Q13163 whole entry, looked up): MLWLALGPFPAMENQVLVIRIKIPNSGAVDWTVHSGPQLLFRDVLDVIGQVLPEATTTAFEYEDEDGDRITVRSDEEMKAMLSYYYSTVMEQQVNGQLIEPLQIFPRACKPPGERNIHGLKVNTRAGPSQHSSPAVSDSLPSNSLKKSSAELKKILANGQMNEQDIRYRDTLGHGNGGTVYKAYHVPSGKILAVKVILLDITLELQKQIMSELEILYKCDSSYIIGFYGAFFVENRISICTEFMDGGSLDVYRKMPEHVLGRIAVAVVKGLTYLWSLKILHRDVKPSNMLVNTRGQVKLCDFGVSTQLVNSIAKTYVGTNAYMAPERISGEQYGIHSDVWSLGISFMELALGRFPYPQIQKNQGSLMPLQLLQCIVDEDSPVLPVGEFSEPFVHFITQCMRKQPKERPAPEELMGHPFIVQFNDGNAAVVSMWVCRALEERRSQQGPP
Assay: KINOMEscan competition binding
Conditions: compound 10.0 µM
Measured Quantity: kinase still bound, per cent of control (%)

compound=CNC(=O)c1cc(Oc2ccc(NC(=O)Nc3ccc(Cl)c(C(F)(F)F)c3)cc2)ccn1 measure_unit=% observed_value=0.3
compound=CN(C)C/C=C/C(=O)Nc1ccc(C(=O)Nc2cccc(Nc3nccc(-c4cccnc4)n3)c2)cc1 measure_unit=% observed_value=41
compound=O=c1cc(N2CCOCC2)oc2c(-c3cccc4c3sc3ccccc34)cccc12 measure_unit=% observed_value=98
compound=C=CC(=O)Nc1cc(-n2c(=O)ccc3cnc4ccc(-c5cn[nH]c5)cc4c32)ccc1C measure_unit=% observed_value=0.3
compound=COCC(=O)NC/C=C/c1ccc2ncnc(Nc3ccc(Oc4ccc(C)nc4)c(C)c3)c2c1 measure_unit=% observed_value=0.2

###

Target: RIPK1 (human)
Test: KINOMEscan competition binding
Details: compound 10.0 µM
Property: kinase still bound, per cent of control; scope: individual molecules
Measured Quantity: kinase still bound, per cent of control (%)

compound=COc1cc(N2CCN(C)CC2)ccc1Nc1ncc2c(n1)N(C)c1ccccc1C(=O)N2C observed_value=100
compound=CS(=O)(=O)N1CCN(Cc2cc3nc(-c4cccc5[nH]ncc45)nc(N4CCOCC4)c3s2)CC1 observed_value=100
compound=CCN(CC)CCCCNc1ncc2cc(-c3cc(OC)cc(OC)c3)c(NC(=O)NC(C)(C)C)nc2n1 observed_value=100
compound=CNC(=O)c1ccc(Nc2cc(Nc3ccccc3S(=O)(=O)C(C)C)c3cc[nH]c3n2)nc1 observed_value=100
compound=COc1cc(C(=O)N2CCC(N3CCN(C)CC3)CC2)ccc1Nc1ncc2c(n1)N(C)c1ccccc1C(=O)N2C observed_value=99
compound=O=c1cc(N2CCOCC2)oc2c(-c3cccc4c3sc3ccccc34)cccc12 observed_value=100
compound=CCN(CC)CCCCNc1ncc2c(n1)N(C)C(=O)N(c1c(Cl)c(OC)cc(OC)c1Cl)C2 observed_value=100
compound=C=CC(=O)Nc1cc(-n2c(=O)ccc3cnc4ccc(-c5cn[nH]c5)cc4c32)ccc1C observed_value=100
compound=COc1ccc(N(C(=O)Oc2c(C)cccc2C)c2ccnc(Nc3ccc(N4CCN(C)CC4)cc3)n2)c(OC)c1 observed_value=63
compound=CCN1CCN(C(=O)Cc2ccc(Nc3ncc(F)c(Nc4ccc(C(=O)Nc5ccccc5Cl)cc4)n3)cc2)CC1 observed_value=96
compound=CNC(=O)c1cc(Oc2ccc(NC(=O)Nc3ccc(Cl)c(C(F)(F)F)c3)cc2)ccn1 observed_value=81
compound=COc1cc2ncn(-c3cc(OCc4ccccc4C(F)(F)F)c(C(N)=O)s3)c2cc1OC observed_value=74
compound=Cc1n[nH]c2ccc(-c3cncc(OC[C@@H](N)Cc4c[nH]c5ccccc45)c3)cc12 observed_value=100
compound=C=CC(=O)Nc1ccc(CN(C(=O)Nc2c(Cl)c(OC)cc(OC)c2Cl)c2cc(Nc3ccc(N4CCN(C)CC4)cc3)ncn2)cc1 observed_value=100
compound=COCC(=O)NC/C=C/c1ccc2ncnc(Nc3ccc(Oc4ccc(C)nc4)c(C)c3)c2c1 observed_value=100
compound=COc1cc2ncnc(-n3nc(-c4ccccn4)nc3N)c2cc1OC observed_value=86
compound=CN(C)C/C=C/C(=O)Nc1ccc(C(=O)Nc2cccc(Nc3nccc(-c4cccnc4)n3)c2)cc1 observed_value=34
compound=NC(=O)Nc1cc(-c2cccc(F)c2)sc1C(=O)N[C@@H]1CCCNC1 observed_value=100
compound=O=C(Nc1cccc(Nc2ncc(Br)c(NCCc3cnc[nH]3)n2)c1)N1CCCC1 observed_value=18
compound=C[C@@H](Oc1cc(-c2cnn(C3CCNCC3)c2)cnc1N)c1c(Cl)ccc(F)c1Cl observed_value=5
compound=O=C1NC(=O)/C(=C/c2ccc3nccc(-c4ccncc4)c3c2)S1 observed_value=100
compound=N#CCNC(=O)c1ccc(-c2ccnc(Nc3ccc(N4CCOCC4)cc3)n2)cc1 observed_value=63

###

Molecular target: UniProt P09619
Sequence (P09619 whole entry, looked up): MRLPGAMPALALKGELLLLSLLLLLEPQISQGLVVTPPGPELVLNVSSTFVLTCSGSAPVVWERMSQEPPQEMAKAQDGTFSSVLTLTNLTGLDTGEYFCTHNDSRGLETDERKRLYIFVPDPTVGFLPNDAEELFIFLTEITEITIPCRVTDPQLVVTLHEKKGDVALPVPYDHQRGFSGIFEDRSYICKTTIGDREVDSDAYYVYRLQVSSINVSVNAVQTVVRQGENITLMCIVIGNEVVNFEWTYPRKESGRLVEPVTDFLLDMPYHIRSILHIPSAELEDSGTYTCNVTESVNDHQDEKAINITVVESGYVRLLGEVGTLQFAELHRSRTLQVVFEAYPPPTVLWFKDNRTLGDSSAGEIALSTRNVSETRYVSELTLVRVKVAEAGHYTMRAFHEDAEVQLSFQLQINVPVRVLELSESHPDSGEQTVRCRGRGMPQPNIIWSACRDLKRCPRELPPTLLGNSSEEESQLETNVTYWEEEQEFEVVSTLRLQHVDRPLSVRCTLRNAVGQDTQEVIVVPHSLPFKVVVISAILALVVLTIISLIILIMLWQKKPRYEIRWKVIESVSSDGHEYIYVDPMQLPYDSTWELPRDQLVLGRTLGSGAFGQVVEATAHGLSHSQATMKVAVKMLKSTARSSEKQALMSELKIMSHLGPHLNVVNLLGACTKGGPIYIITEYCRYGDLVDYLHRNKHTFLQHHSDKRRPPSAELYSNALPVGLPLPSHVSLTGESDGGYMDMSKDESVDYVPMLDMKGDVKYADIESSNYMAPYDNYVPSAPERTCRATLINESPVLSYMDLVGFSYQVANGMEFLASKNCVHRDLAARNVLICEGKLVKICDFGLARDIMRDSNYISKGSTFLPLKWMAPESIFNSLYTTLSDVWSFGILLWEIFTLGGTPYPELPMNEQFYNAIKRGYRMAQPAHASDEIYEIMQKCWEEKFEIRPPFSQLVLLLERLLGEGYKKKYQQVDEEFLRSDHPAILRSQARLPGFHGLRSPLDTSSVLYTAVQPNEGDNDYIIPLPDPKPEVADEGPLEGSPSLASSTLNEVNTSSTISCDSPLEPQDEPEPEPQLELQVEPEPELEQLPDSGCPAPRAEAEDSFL
Assay: KINOMEscan competition binding
Conditions: compound 10.0 µM
Listed molecules paired with reported kinase still bound, per cent of control
Measured Quantity: kinase still bound, per cent of control (%)

compound=CS(=O)(=O)N1CCN(Cc2cc3nc(-c4cccc5[nH]ncc45)nc(N4CCOCC4)c3s2)CC1 observed_value=100
compound=C=CC(=O)Nc1cc(-n2c(=O)ccc3cnc4ccc(-c5cn[nH]c5)cc4c32)ccc1C observed_value=5.6
compound=COc1cc(N2CCN(C)CC2)ccc1Nc1ncc2c(n1)N(C)c1ccccc1C(=O)N2C observed_value=100
compound=COc1ccc(N(C(=O)Oc2c(C)cccc2C)c2ccnc(Nc3ccc(N4CCN(C)CC4)cc3)n2)c(OC)c1 observed_value=0
compound=CCN1CCN(C(=O)Cc2ccc(Nc3ncc(F)c(Nc4ccc(C(=O)Nc5ccccc5Cl)cc4)n3)cc2)CC1 observed_value=0.15
compound=CNC(=O)c1ccc(Nc2cc(Nc3ccccc3S(=O)(=O)C(C)C)c3cc[nH]c3n2)nc1 observed_value=8.4
compound=C[C@@H](Oc1cc(-c2cnn(C3CCNCC3)c2)cnc1N)c1c(Cl)ccc(F)c1Cl observed_value=44
compound=CNC(=O)c1cc(Oc2ccc(NC(=O)Nc3ccc(Cl)c(C(F)(F)F)c3)cc2)ccn1 observed_value=0

###

Recorded kinase still bound, per cent of control by entry
Biological target: DYRK1A (human)
Assay: KINOMEscan competition binding
Conditions: compound 10.0 µM
Measured Quantity: kinase still bound, per cent of control (%)

compound=O=c1cc(N2CCOCC2)oc2c(-c3cccc4c3sc3ccccc34)cccc12 system="DYRK1A (human)" measure_unit=% observed_value=61
compound=NC(=O)Nc1cc(-c2cccc(F)c2)sc1C(=O)N[C@@H]1CCCNC1 system="DYRK1A (human)" measure_unit=% observed_value=0
compound=CNC(=O)c1cc(Oc2ccc(NC(=O)Nc3ccc(Cl)c(C(F)(F)F)c3)cc2)ccn1 system="DYRK1A (human)" measure_unit=% observed_value=100
compound=CCN(CC)CCCCNc1ncc2c(n1)N(C)C(=O)N(c1c(Cl)c(OC)cc(OC)c1Cl)C2 system="DYRK1A (human)" measure_unit=% observed_value=100
compound=COc1cc2ncn(-c3cc(OCc4ccccc4C(F)(F)F)c(C(N)=O)s3)c2cc1OC system="DYRK1A (human)" measure_unit=% observed_value=75
compound=O=C(Nc1cccc(Nc2ncc(Br)c(NCCc3cnc[nH]3)n2)c1)N1CCCC1 system="DYRK1A (human)" measure_unit=% observed_value=12
compound=C=CC(=O)Nc1cc(-n2c(=O)ccc3cnc4ccc(-c5cn[nH]c5)cc4c32)ccc1C system="DYRK1A (human)" measure_unit=% observed_value=0.1
compound=COc1ccc(N(C(=O)Oc2c(C)cccc2C)c2ccnc(Nc3ccc(N4CCN(C)CC4)cc3)n2)c(OC)c1 system="DYRK1A (human)" measure_unit=% observed_value=75
compound=COc1cc2ncnc(-n3nc(-c4ccccn4)nc3N)c2cc1OC system="DYRK1A (human)" measure_unit=% observed_value=0.1

###

Biological target: ERBB2 (human) (UniProt P04626)
Sequence (P04626 whole entry, looked up): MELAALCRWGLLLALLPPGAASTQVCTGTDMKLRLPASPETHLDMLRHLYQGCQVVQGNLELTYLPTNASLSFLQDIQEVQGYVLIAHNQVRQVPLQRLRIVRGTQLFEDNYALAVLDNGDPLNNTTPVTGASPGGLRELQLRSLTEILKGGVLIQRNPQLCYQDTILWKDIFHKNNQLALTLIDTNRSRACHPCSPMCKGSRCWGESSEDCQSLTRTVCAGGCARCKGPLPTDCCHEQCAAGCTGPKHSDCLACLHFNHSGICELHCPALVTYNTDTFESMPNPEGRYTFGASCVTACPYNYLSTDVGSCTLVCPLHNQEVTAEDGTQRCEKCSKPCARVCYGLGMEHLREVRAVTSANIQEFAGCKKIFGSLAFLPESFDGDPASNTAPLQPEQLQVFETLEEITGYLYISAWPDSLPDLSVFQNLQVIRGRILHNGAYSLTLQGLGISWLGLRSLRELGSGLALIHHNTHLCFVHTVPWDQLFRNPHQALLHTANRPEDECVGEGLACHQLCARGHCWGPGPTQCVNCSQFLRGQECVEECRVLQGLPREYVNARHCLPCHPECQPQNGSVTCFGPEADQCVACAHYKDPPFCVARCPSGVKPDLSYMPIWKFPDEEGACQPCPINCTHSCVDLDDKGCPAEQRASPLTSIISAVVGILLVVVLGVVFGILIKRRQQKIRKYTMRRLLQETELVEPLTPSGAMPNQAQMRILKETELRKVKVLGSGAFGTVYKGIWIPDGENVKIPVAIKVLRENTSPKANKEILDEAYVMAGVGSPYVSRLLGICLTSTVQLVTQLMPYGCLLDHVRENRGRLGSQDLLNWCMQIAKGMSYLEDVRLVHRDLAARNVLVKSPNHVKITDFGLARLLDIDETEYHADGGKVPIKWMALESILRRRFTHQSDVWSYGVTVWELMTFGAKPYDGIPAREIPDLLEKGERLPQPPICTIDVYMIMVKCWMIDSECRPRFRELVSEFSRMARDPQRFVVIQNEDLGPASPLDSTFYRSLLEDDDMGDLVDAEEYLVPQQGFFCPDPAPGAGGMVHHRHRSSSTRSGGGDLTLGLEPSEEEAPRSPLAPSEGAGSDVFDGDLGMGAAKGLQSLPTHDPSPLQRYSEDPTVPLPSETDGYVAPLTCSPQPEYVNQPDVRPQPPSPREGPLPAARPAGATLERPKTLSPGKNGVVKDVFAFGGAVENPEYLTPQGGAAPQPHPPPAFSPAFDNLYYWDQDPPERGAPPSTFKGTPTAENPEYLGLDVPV
Assay: KINOMEscan competition binding
Conditions: compound 10.0 µM
// kinase still bound, per cent of control lookup, one value per entry
Measured Quantity: kinase still bound, per cent of control (%)

compound=O=C1NC(=O)/C(=C/c2ccc3nccc(-c4ccncc4)c3c2)S1 observed_value=66
compound=COc1cc(C(=O)N2CCC(N3CCN(C)CC3)CC2)ccc1Nc1ncc2c(n1)N(C)c1ccccc1C(=O)N2C observed_value=100
compound=COCC(=O)NC/C=C/c1ccc2ncnc(Nc3ccc(Oc4ccc(C)nc4)c(C)c3)c2c1 observed_value=0
compound=C=CC(=O)Nc1cc(-n2c(=O)ccc3cnc4ccc(-c5cn[nH]c5)cc4c32)ccc1C observed_value=42
compound=COc1ccc(N(C(=O)Oc2c(C)cccc2C)c2ccnc(Nc3ccc(N4CCN(C)CC4)cc3)n2)c(OC)c1 observed_value=15
compound=NC(=O)Nc1cc(-c2cccc(F)c2)sc1C(=O)N[C@@H]1CCCNC1 observed_value=0
compound=COc1cc2ncn(-c3cc(OCc4ccccc4C(F)(F)F)c(C(N)=O)s3)c2cc1OC observed_value=100
compound=N#CCNC(=O)c1ccc(-c2ccnc(Nc3ccc(N4CCOCC4)cc3)n2)cc1 observed_value=61
compound=COc1cc(N2CCN(C)CC2)ccc1Nc1ncc2c(n1)N(C)c1ccccc1C(=O)N2C observed_value=100
compound=C=CC(=O)Nc1ccc(CN(C(=O)Nc2c(Cl)c(OC)cc(OC)c2Cl)c2cc(Nc3ccc(N4CCN(C)CC4)cc3)ncn2)cc1 observed_value=16
compound=O=C(Nc1cccc(Nc2ncc(Br)c(NCCc3cnc[nH]3)n2)c1)N1CCCC1 observed_value=88
compound=Cc1n[nH]c2ccc(-c3cncc(OC[C@@H](N)Cc4c[nH]c5ccccc45)c3)cc12 observed_value=100
compound=O=c1cc(N2CCOCC2)oc2c(-c3cccc4c3sc3ccccc34)cccc12 observed_value=100
compound=CCN1CCN(C(=O)Cc2ccc(Nc3ncc(F)c(Nc4ccc(C(=O)Nc5ccccc5Cl)cc4)n3)cc2)CC1 observed_value=100
compound=COc1cc2ncnc(-n3nc(-c4ccccn4)nc3N)c2cc1OC observed_value=93
compound=CNC(=O)c1cc(Oc2ccc(NC(=O)Nc3ccc(Cl)c(C(F)(F)F)c3)cc2)ccn1 observed_value=100
compound=CNC(=O)c1ccc(Nc2cc(Nc3ccccc3S(=O)(=O)C(C)C)c3cc[nH]c3n2)nc1 observed_value=100
compound=CS(=O)(=O)N1CCN(Cc2cc3nc(-c4cccc5[nH]ncc45)nc(N4CCOCC4)c3s2)CC1 observed_value=100
compound=CN(C)C/C=C/C(=O)Nc1ccc(C(=O)Nc2cccc(Nc3nccc(-c4cccnc4)n3)c2)cc1 observed_value=97
compound=CCN(CC)CCCCNc1ncc2c(n1)N(C)C(=O)N(c1c(Cl)c(OC)cc(OC)c1Cl)C2 observed_value=100
compound=CCN(CC)CCCCNc1ncc2cc(-c3cc(OC)cc(OC)c3)c(NC(=O)NC(C)(C)C)nc2n1 observed_value=100
